Tested on: MS2 coat protein
assay info: apparent KD of MS2 coat protein; designed switch direction (-1 OFF switch, 1 ON switch): -1; higher = weaker reporter binding
measurement setup: input ligand: FMN 200 uM
We'd kindly ask you to apply these apparent KD of MS2 coat protein classes: bucket 1 = under 40 nM, bucket 2 = from 40 nM up to 100 nM, bucket 3 = 100 nM and over

Req: Bin? UUGUUACAUGAGGAUCACCCAUGUGAGGAUAUGGCCCGCCCGGCGUGAGCUGGUUUUGUCAGAAGGCGCAUAGG [salish99_ex1_r4_024] (Eterna round: R97, puzzle: Exclusion 1)
Resp: bucket 2

Req: Further, for UAGUACAGAGGAUAUACAUGAGGAUCACCCAUGUGUUUCAGCUAGGAGACUAGCGAAAGUAGAAGGCUGUACUG [salish99_ex3_r4_010] (Eterna round: R97, puzzle: Exclusion 3) ?
Resp: bucket 1

Req: # iterate: AUUAAACAUGUAGGAUAUGCGUGGCGAAGCUAUGCAGAAGGACAUGAGGAUCACCCAUGUAAAAGCGUCUGCGUACAGAUGCAA [Mat - Exclusion NG 1 - Mod of JL - D84] (Eterna round: R96, puzzle: Exclusion NG 1)
Resp: bucket 3

Req: Moving on to GCGCGGCGUGUAGGAUAUGCGCGCGGGUCGCGCGCAGAAGGACAUGAGGAUCACCCAUGUGGCGCGCUUGGCGCGCCGCCGCGC [-48, -45 kcal and 14% A] (Eterna round: R96, puzzle: Exclusion NG 1)
Resp: bucket 1

Req: Another: AGUCAGGCGGUAGGAUAUCCAAACCGAGUGACCCUUUCAUAACAUGAGGAUCACCCAUGUCGGUGGGAGAAGGGCCGUACGGCG [JL ViennaUCT Atra mod 2] (Eterna round: R96, puzzle: Exclusion NG 2)
Resp: bucket 3

Req: Moving on to UGAUCUAGCGGAGGAUAUACAUGAGGAUCACCCAUGUAUAGGCUAUGACCGUAGUCGUGGCACGUGUAGAAGGCCGCUAGAUCU [JL ENG2 3.77] (Eterna round: R96, puzzle: Exclusion NG 2)
Resp: bucket 1

Req: Now this one: CAGCUGAAUGUGAGGAUAUCUAGAGCCUCGGCUCUAGAGAAGGCACAUGAGGAUCACCCAUGUCUCAACAGCUG [BmEx4/2-A2] (Eterna round: R97, puzzle: Brourd's mod of Exclusion 4)
Resp: bucket 3

Req: What about this sequence? UGUUCGCGAGGAUAUGCAUUCGAGUCCAUUACGUGUCUGGGACUUGAGGAUCACCCAAGUAGAAGGCGUCUCAC [salish99_ex2_r4_645] (Eterna round: R97, puzzle: Exclusion 2)
Resp: bucket 3

Req: Follow-up entry: GUUGUGUUAGGAUAUAACAACUACUAAUAAAUUAGUAGUUGUUAGAAGGAACAUGAGGAUCACCCAUGUAUGAC [-21.3, -20.2 kcal, A 36%] (Eterna round: R97, puzzle: Exclusion 4)
Resp: bucket 2

Req: Another: AUCUACCGAGCAGGAUAUCCAGGCACAUGAGGAUCACCCAUGUCAGGGAGAGAAGUUGUUUGCGUGGAGAAGGGCUAUAAAUUA [Isdiatte] (Eterna round: R96, puzzle: Exclusion NG 2)
Resp: bucket 3

Req: Param item: GGCGGACAUGAGGAUCACCCAUGUAAGGAUAUUAGGCGAUCGUCGAUAGACGAUAGCCUGAGAAGGUACGCGCC [Mat - Exclusion 1 - Eli Mod - D14] (Eterna round: R97, puzzle: Exclusion 1)
Resp: bucket 1

Req: Would you mind doing CGGUGUAGAGGAUAUACGUGAAUAUUAUUAGAUAAUAAUUUACAUGAGGAUCACCCAUGUAGAAGGCUAUAGCG [JR_Ex2_Sub083] (Eterna round: R97, puzzle: Exclusion 2) as well?
Resp: bucket 1

Req: Next entry: UAAAGUAUAUAGGAUAUCUAGCUGGUAACAGCUAGAGAAGGAUGUACAUGAGGAUCACCCAUGUAGAUCUCAAA [Ex6/15-A3] (Eterna round: R97, puzzle: Exclusion 6)
Resp: bucket 1

Req: Further, for CAUGAUUGGGAAGGAUAUUGACCUAGUUAGUGCCGAGAAGGUCCCUUUCACAUGAGGAUCACCCAUGUGAGUCUGGUGUUCGAG [Ex NG1 #97] (Eterna round: R96, puzzle: Exclusion NG 1) ?
Resp: bucket 2

Req: Same lookup for GAAAAUAGUGAGGAUAUAUCACGGAUACCCGAGAUAGAAGGCACUACAUGAGGAUCACCCAUGUUCGGGUGUCC [Areleon] (Eterna round: R97, puzzle: Exclusion 6) , please.
Resp: bucket 3

Req: Here is the next sequence: AAGAAGAAGUAAGGAUAUGAAGAUCUGGUGGUGACAUGAGGAUCACCCAUGUGAAAACGAUGAGAUCAGAAGGUACAAGAAGAA [AK ExNG2-3.4] (Eterna round: R96, puzzle: Exclusion NG 2)
Resp: bucket 2

Req: Param item: GACGAAAGAGGAUAUACCGUACGACCCUCGUCAGGGAUCCGACAUGAGGAUCACCCAUGUAGAAGGCUUGCGUC [Eternabot (Original) Solution 25] (Eterna round: R97, puzzle: Exclusion 2)
Resp: bucket 3

Req: And for CUUAGUUGGUAAGGAUAUCCUACAUUAUUCUGACCCGUGCAAGCUACAUGAGGAUCACCCAUGUGGGAGAAGGUGCGUUAACGU [Design 7] (Eterna round: R96, puzzle: Exclusion NG 2) ?
Resp: bucket 2

Req: And AAAAAGUCAGGAUAUGUAGCAAAAGGUGAUCAAAAAAAGCUACAGAAGGGACAUGAGGAUCACCCAUGUAAAAA [Ex4: 937] (Eterna round: R96, puzzle: Exclusion 4) ?
Resp: bucket 3
